study target: CDK7/cyclinH/MAT1 trimeric complex (Homo sapiens)
assay notes: In vitro CDK7 assay, potency of irreversible covalent inhibitors (kinact/KI), coupled PK/LDH ADP readout at 340 nm
conditions: read-out: CDK7 (20 nM enz.) (kobs/[I], M^−1*s^−1), 20 nM enzyme
Class Met: kinact/KI at least 1000 M⁻¹ s⁻¹. Class Not met: kinact/KI below 1000 M⁻¹ s⁻¹.

C=CC(=O)N1CC(N2CCC(c3ccc4c(c3)Nc3nccc(N5CCOCC5)c3[C@@H](C)O4)CC2)C1 (single isomer, unassigned) [Compound 89] ... Not met
C=CC(=O)N1CC(N2CCC(c3ccc4c(c3)Nc3nccc(N5CCOCC5)c3[C@@H](C)O4)CC2)C1 (single isomer, unassigned) [compound 90] ... Met

# check: kinact/KI of C=CC(=O)N1CC[C@@H](N2CC(c3cc(C)c4c(c3)Nc3nccc(N5CCOCC5)c3[C@@H](C)O4)C2)C1 (single isomer, unassigned) [Compound 398] is greater than or equal to 1000 M⁻¹ s⁻¹ Met

Answer whether kinact/KI of CC#CC(=O)N1CCC(N2CCC(c3cc4c(c(C)n3)O[C@H](C)c3c(N5CCOCC5)ccnc3N4)CC2)CC1 (single isomer, unassigned) [Compound 416] is greater than or equal to 1000 M⁻¹ s⁻¹. Met

API: above_or_equal(metric=kinact/KI, cutoff=1000 M⁻¹ s⁻¹) for item C=CC(=O)N1CC(N2CCC(c3cc4c(c(C5CC5)c3)OCc3c(C5CCOCC5)ccnc3N4)CC2)C1 [Compound 87] Met

Entry C=CC(=O)N1CC(N2CC[C@H](c3ccc4c(c3)Nc3nccc(N5CCOCC5)c3CO4)C[C@H]2C)C1 (single isomer, unassigned) [Compound 76] : is its kinact/KI no less than 1000 M⁻¹ s⁻¹? Met

Check this molecule for kinact/KI at or above 1000 M⁻¹ s⁻¹: C=CC(=O)N1CC[C@H](N2CC(c3cc4c(c(C5CC5)n3)OCc3c(N5CCOCC5)ccnc3N4)C2)C1 (single isomer, unassigned) [Compound 326] Not met

Determine whether this molecule has kinact/KI no lower than 1000 M⁻¹ s⁻¹: C=CC(=O)Nc1ccc(-c2ccc3c(c2)Nc2nccc(N4CCOCC4)c2CO3)cn1 [Compound 178] Met

Hi, just wondering whether C=CC(=O)N1CC[C@H](N2CC(c3cc(C#N)c4c(c3)Nc3nccc(N5CCOCC5)c3[C@@H](C)O4)C2)C1 (single isomer, unassigned) [Compound 459] shows kinact/KI of 1000 M⁻¹ s⁻¹ or higher. Not met

Say whether C#Cc1cc(C2CCN(C3CN(C(=O)C=C)C3)CC2)cc2c1O[C@@H](C)c1c(N3CCOCC3)ccnc1N2 (single isomer, unassigned) [Compound 258] shows kinact/KI of 1000 M⁻¹ s⁻¹ or more. Not met

* * *

Give CDK7 (20 nM enz.) (kobs/[I], M^−1*s^−1) for every item shown.
study target: CDK7/cyclinH/MAT1 trimeric complex (Homo sapiens, UniProt P50613)
Sequence (P50613 whole entry): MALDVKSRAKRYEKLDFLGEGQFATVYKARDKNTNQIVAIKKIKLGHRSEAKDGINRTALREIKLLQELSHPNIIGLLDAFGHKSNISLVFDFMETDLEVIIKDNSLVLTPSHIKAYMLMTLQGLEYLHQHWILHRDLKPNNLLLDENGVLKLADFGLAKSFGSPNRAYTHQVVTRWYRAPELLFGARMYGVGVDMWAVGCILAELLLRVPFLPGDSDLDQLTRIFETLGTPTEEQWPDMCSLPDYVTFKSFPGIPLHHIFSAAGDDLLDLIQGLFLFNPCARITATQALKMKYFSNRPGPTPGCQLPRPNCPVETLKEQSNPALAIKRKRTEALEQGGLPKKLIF
Sequence (P51946 whole entry partner): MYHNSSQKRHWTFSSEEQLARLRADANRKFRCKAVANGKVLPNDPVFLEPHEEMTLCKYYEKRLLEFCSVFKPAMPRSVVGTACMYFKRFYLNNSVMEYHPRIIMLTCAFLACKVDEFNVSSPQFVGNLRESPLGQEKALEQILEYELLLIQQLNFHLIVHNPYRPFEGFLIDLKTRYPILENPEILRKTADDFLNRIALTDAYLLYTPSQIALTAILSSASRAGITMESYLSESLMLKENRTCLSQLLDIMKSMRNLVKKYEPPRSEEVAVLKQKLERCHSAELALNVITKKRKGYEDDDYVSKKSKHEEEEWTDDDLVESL
Sequence (P51948 whole entry partner): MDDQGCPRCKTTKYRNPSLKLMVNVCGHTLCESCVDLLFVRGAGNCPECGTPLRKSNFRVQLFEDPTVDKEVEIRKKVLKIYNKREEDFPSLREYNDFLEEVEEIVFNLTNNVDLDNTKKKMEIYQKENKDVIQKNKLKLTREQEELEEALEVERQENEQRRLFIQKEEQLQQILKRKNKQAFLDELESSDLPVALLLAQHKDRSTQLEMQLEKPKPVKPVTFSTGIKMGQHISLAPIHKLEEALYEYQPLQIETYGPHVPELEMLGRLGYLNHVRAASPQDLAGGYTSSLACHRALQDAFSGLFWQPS
assay notes: In vitro CDK7 assay, potency of irreversible covalent inhibitors (kinact/KI), coupled PK/LDH ADP readout at 340 nm
conditions: 20 nM enzyme
Numbers only, in M⁻¹ s⁻¹.

C=CC(=O)N1CC(N2CC(c3cc4c(c(C(F)(F)F)n3)OCc3c(N5CCOCC5)ccnc3N4)C2)C1 [Compound 235] ... 962.5
C=CC(=O)N1CC(N2CCC(c3cc(F)c4c(c3)Nc3nccc(-c5cnn(C)c5)c3CO4)CC2)C1 ... 875.576
C=CC(=O)N1CC(N2CC(c3cc4c(c(C(F)(F)F)n3)OCc3c(N5CCOCC5)ccnc3N4)C2)C1 [Compound 357] ... 2368.08

Answer for every listed entry: what is its CDK7 (20 nM enz.) (kobs/[I], M^−1*s^−1)? The entries follow.
1. C=CC(=O)N1CC(N2CC(c3cc4c(c(C(F)(F)F)n3)OCc3c(N5CCOCC5)ccnc3N4)C2)C1 [Compound 315]
2. C=CC(=O)Nc1ccc(-c2ccc3c(c2)Nc2nccc(N4CCOCC4)c2CO3)cn1
3. C=CC(=O)N1CC[C@H](N2CC(c3cc4c(c(C(F)(F)F)n3)OCc3c(N5CCOCC5)ccnc3N4)C2)C1 (single isomer, unassigned) [Compound 234]

[894.649, 1343.33, 610.385]

* * *

study target: CDK7/cyclinH/MAT1 trimeric complex (Homo sapiens)
assay notes: In vitro CDK7 assay, potency of irreversible covalent inhibitors (kinact/KI), coupled PK/LDH ADP readout at 340 nm
conditions: read-out: CDK7 (20 nM enz.) (kobs/[I], M^−1*s^−1), 20 nM enzyme
readout type: kinact/KI (M⁻¹ s⁻¹)
One number for each entry, in M⁻¹ s⁻¹.

C=CC(=O)N1CC(n2cc(-c3cc(C)c4c(c3)Nc3nccc(N5CCOCC5)c3CO4)cn2)C1 ... 1250
C=CC(=O)N1CC(N2CCC(c3ccc4c(c3)Nc3nccc(-c5cnn(C)c5)c3[C@@H](C)O4)CC2)C1 (single isomer, unassigned) [Compound 127] ... 1420

Now, please, on to the next compound.
Quick one: kinact/KI for C=CC(=O)N1CC[C@H](N2CC(c3cc4c(c(C(F)(F)F)c3)OCc3c(N5CCOCC5)ccnc3N4)C2)C1 (single isomer, unassigned) ? 758

* * *

study target: CDK7/cyclinH/MAT1 trimeric complex (Homo sapiens, UniProt P50613)
assay notes: In vitro CDK7 assay, potency of irreversible covalent inhibitors (kinact/KI), coupled PK/LDH ADP readout at 340 nm
conditions: CDK7 (20 nM enz.) (KI, μM), 20 nM enzyme
readout type: log10 of Ki (log10 of the value in µM)
All values: log10 Ki [µM].

Examples from the recorded data:
CC#CC(=O)N1CC[C@H](N2CC(c3cc(C)c4c(c3)Nc3nccc(N5CCOCC5)c3[C@H](C)O4)C2)C1 (single isomer, unassigned) ... -0.17
C=CC(=O)N1CC(N2CC(c3cc4c(c(C)n3)O[C@H](C)c3c(N5CCOCC5)ccnc3N4)C2)C1 (single isomer, unassigned) [Compound 343] ... -1.30
C=CC(=O)N1CCC(C2CN(c3cc4c(c(C)n3)OCc3c(N5CCOCC5)ccnc3N4)C2)CC1 ... -0.40
CC#CC(=O)N1CCC(N2CC(c3cc4c(c(C5CC5)n3)OCc3c(N5CCOCC5)ccnc3N4)C2)CC1 [Compound 340] ... -1.31
CC#CC(=O)N1CC[C@@H](N2CC(c3cc(C)c4c(c3)Nc3nccc(N5CCOCC5)c3[C@H](C)O4)C2)C1 (single isomer, unassigned) ... 0.30

--- query ---
Please tell me: log10 of Ki of C=CC(=O)N1CC(N2CCC(c3cc(C)c4c(c3)Nc3ncc(C#N)c(N5CCOCC5)c3CO4)CC2)C1 , system CDK7/cyclinH/MAT1 trimeric complex (Homo sapiens, UniProt P50613)? -0.52

* * *

Please provide measured CDK7 (20 nM enz.) (kinact/KI, M^−1*s^−1) for the entries that follow.
study target: CDK7/cyclinH/MAT1 trimeric complex (Homo sapiens, UniProt P50613)
assay notes: In vitro CDK7 assay, potency of irreversible covalent inhibitors (kinact/KI), coupled PK/LDH ADP readout at 340 nm
conditions: 20 nM enzyme
Numbers only, in M⁻¹ s⁻¹.

Example entries and their recorded answers appear below.
CC#CC(=O)N1CCC(N2CC(c3cc4c(c(C5CC5)n3)OCc3c(N5CCOCC5)ccnc3N4)C2)CC1 ... 507.473
C=CC(=O)N1CC(N2CC(c3cc4c(c(C)n3)OCc3c(N5CCOCC5)ccnc3N4)C2)C1 [Compound 273] ... 945.57
CC#CC(=O)N1CC(N2CC(c3cc4c(c(C)n3)O[C@H](C)c3c(N5CCOCC5)ccnc3N4)C2)C1 (single isomer, unassigned) [Compound 440] ... 246.333
C=CC(=O)N1CCC(N2CC(c3cc4c(c(C5CC5)n3)OCc3c(N5CCOCC5)ccnc3N4)C2)CC1 [Compound 336] ... 229.663
C=CC(=O)N1CC[C@H](N2CC(c3cc4c(c(C5CC5)n3)OCc3c(N5CCOCC5)ccnc3N4)C2)C1 (single isomer, unassigned) [Compound 447] ... 551.654

Give me CDK7 (20 nM enz.) (kinact/KI, M^−1*s^−1) for each of these compounds, listed below.
1. C=CC(=O)N1CC(N2CCC(c3cc4c(c(C)n3)OCc3c(N5CCOCC5)ccnc3N4)CC2)C1
2. C=CC(=O)N1CC[C@@H](N2CC(c3cc4c(c(C(F)(F)F)n3)OCc3c(N5CCOCC5)ccnc3N4)C2)C1 (single isomer, unassigned)

1: 845.246; 2: 1530.27

* * *

study target: CDK7/cyclinH/MAT1 trimeric complex (Homo sapiens)
assay notes: In vitro CDK7 assay, potency of irreversible covalent inhibitors (kinact/KI), coupled PK/LDH ADP readout at 340 nm
conditions: read-out: CDK7 (kinact, s^−1), kinact = maximal rate of inactivation; 1 mM ATP, room temperature; averaged values over all measurements
Provide the reported kinact of each item.
One number for each entry, in s⁻¹.

Completed entries (count: 4):
C=CC(=O)Nc1ccc(-c2ccc3c(c2)Nc2nccc(N4CCOCC4)c2CO3)cn1 [Compound 26] ... 0.000102
C=CC(=O)N1CC(N2CCC(c3ccc4c(c3)Nc3nccc(N5CCOCC5)c3CO4)C(C)(C)C2)C1 (stereo not shown) [Compound 41] ... 8.37e-05
C=CC(=O)N1CC(c2nc(C)c(-c3ccc4c(c3)Nc3nccc(N5CCOCC5)c3CO4)c(C)n2)C1 [Compound 51] ... 7.84e-05
C=CC(=O)N1CC[C@H]2CN(c3ccc4c(c3)Nc3nccc(N5CCOCC5)c3CO4)CC[C@@H]21 (racemic) [Compound 48] ... 4.98e-05

Give kinact for all compounds that follow.
1. C=CC(=O)Nc1ccc(C(=O)Nc2ccc3c(c2)Nc2nccc(C4CCOCC4)c2CO3)cc1 [Compound 1]
2. C=CC(=O)N1CCC(C#Cc2ccc3c(c2)Nc2nccc(C4CCOCC4)c2CO3)CC1 [Compound 30]
3. C=CC(=O)N1CC(N2CCC(c3ccc4c(c3)Nc3ncc(C#N)c(N5CCOCC5)c3CO4)CC2)C1 [Compound 45]

[0.0003, "6.56e-05", 0.000137]
